Give measured normalized growth for each item. Keep answers brief.
protocol.summary: chemical genetic growth profiling, strain panel (AID 1159580);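 also: tested at 20 µM; growth read once vehicle control cultures reached saturation at 30 °C; 1 = growth at the plate median or of vehicle wells; lower values mean less growth of the strain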
condition.set: S. cerevisiae deletion strains, growth OD, locus YIL147C, strain SLN1, stronger effect = lower value
Screen size: about 5,500 compounds; about 2,000 (36%) were called active. Another 18% or so got no clear call; they are omitted. The list shows a part of the results.
The reply should be a number, written without any unit.

GET /values?readout=normalized growth&item= `O=C(Nc1ccc(C(F)(F)F)cc1)N1CCN(c2ccnc3cc(Cl)ccc23)CC1`
0.981

GET /values?readout=normalized growth&item= `FC(F)(F)c1cccc(NNC(=S)Nc2ccccc2)c1`
0.998

GET /values?readout=normalized growth&item= `Fc1cccc(F)c1NC(=S)Nc1cc(C(F)(F)F)cc(C(F)(F)F)c1`
0.981

GET /values?readout=normalized growth&item= `N#CC(C#N)=C/C=C(/Sc1ccc(F)c(Cl)c1)c1ccc(Cl)cc1`
0.951

Measured values drawn from PubChem BioAssay AID1159580 for this set.
